System Under Test: T1, AAV9 capsid (adeno-associated virus serotype 9, UniProt Q6JC40)
T1 construct: also called wtAAV9; AAV9 vector; copies: 60
Procedure Summary: far-Western, overlay or dot blot; native dot immunoblot: native capsids adsorbed onto nitrocellulose; human mAbs at ~1 µg/ml in PBS with 6% milk, 0.1% Tween-20, 1 h; anti-human-HRP
Condition Parameters: both partners purified
Experimental Readout: binding result

mAb3-2 (antibody, V domains shown) VH: EVQLLESGGGLVQPGGSLRLSCAASGFTFSNYAMSWVRQAPGKGLEWVSLISGSGGSIDYADSVKGRFTISRDNSKNTLYLQMDSLRAEDTAVYYCSKDPIYYDLSGYYAGRIYYFDYWGQGTLVTVSS VL: EIVMTQSPATLSVSPGDTATLSCRASHSVSRDLAWYQQKPGQAPRLLIYDASTRATGIPARFSGSGSGTEFTLTISSLQSEDFAVYYCQQYINWVTFGPGTKVDIE ... binds
mAb1-3 (antibody, V domains shown) VH: VQLVESGGGVVQPGRSLRLSCAASGFSFSSFVFHWVRQAPGKGLEWVAVISYDGSNKNYADSVKGRFTISRDNSKNTLFLQMNSLSADDTAVYYCARGAICSSTTCYLGDSYYFYGMDVWGQGTTVTVSS VL: LTQPPSVSGAPGQRVTISCTGSRSNIGAGYDVHWYQQLPGTAPKLLIYGNSNRPSGVPDRFSGSKSGTSASLAITGLQTDDEADYYCQSYDSSLSGSVFGGGTKLTVL ... binds
mAb3-5 (antibody, V domains shown) VH: EVQLVESGGGLVQPGGSLRLSCAASGFTFSNYGMNWVRQAPGKGLEWVSYISSGGTIYYADSVKGRFTISRDNAKNSVYLQMNSLRAEDTAVYYCARDPAYCGDDCYTIPAHYFDYWGQGTPVTVS VL: DIQMTQSPSSLSASVGDRVTITCRTSQSISRYLNWYQQKPGKAPKLLIYAASSLQSGVPSRFTGSGSGTDFTLTISSLQPEDFATYYCQQSYSIPPVTFGQGTRVD ... binds
